# Test system: OCI-AML5 cells expressing shRNAs targeting CDK1, 2, 4, 7, 9, cyclin K
# Experiment: Dose response in OCI-AML5 expressing shRNAs targeting CDK1, 2, 4, 7, 9, cyclin K or control
# Assay type: cell-based, H. sapiens
# Setup Conditions: OCI-AML5 expressing shRNA CCNK (cyclin K); read-out: IC50 shRNA CCNK
Measured Attribute: pIC50
Answers are plain numbers, as −log10 of the molar value.

Example entries begin here.
- Smiles Record: "CN(C)c1ccc(CC(=O)Nc2ncc(C(C)(C)C)s2)cc1"
  Experimental Result: 6.47
- Smiles Record: "COc1ccc2cc([C@H](C)C(=O)Nc3ncc(SCc4cccnc4)s3)ccc2c1"
  Experimental Result: 6.40
- Smiles Record: "CC(C)(C)OC(=O)N1CCC(C(=O)Nc2ncc(SCc3cccnc3)s2)CC1"
  Experimental Result: 5.29
- Smiles Record: "O=C(Cc1ccccc1)Nc1ncc(SCc2cccnc2)s1"
  Experimental Result: 5.60
- Smiles Record: "O=C(Cc1ccc(CNC(=O)OCC2c3ccccc3-c3ccccc32)cc1)Nc1ncc(SCc2cccnc2)s1"
  Experimental Result: 6.12

Pending molecule:
Item O=C(Cc1ccc(NC(=O)C23CC4CC(CC(C4)C2)C3)cc1)Nc1ncc(SCc2cccnc2)s1 with OCI-AML5 cells expressing shRNAs targeting CDK1, 2, 4, 7, 9, cyclin K - pIC50? 5.99

----------
# Tested on: OCI-AML5 cells expressing shRNAs targeting CDK1, 2, 4, 7, 9, cyclin K
# Experiment: Dose response in OCI-AML5 expressing shRNAs targeting CDK1, 2, 4, 7, 9, cyclin K or control
# Format: cell-based, H. sapiens
# Setup Conditions: OCI-AML5 expressing shRNA CDK2; read-out: IC50 shRNA CDK2
pIC50: −log10 of the molar value.
Could you please report measured pIC50 for the items listed next?

- Smiles Record: "CN(C)c1ccc(CC(=O)Nc2nc3ccccc3o2)cc1"
  Measured Attribute: "pIC50"
  Experimental Result: "< 5.00"
- Smiles Record: "Cc1nnc(NC(=O)Cc2ccc(N(C)C)cc2)s1"
  Measured Attribute: "pIC50"
  Experimental Result: "< 5.00"

# next molecule below
What does the record list as pIC50 for CC(=O)Nc1ncc(SCc2cccnc2)s1 ? < 5.00

----------
# Tested on: primary AML specimens
# Experiment: Dose-response assays in primary AML specimens (6 days, CellTiterGlo)
# Type: cell-based, human
# Setup Conditions: Homo sapiens, 144 h, primary AML specimen 08H056; 6 days; read-out: IC50
Can you tell me pIC50 for the items I'm about to list?
Give bare numbers, as −log10 of the molar value.

Worked cases, answers included:
- Smiles Record: "CN(C)c1ccc(CC(=O)Nc2ncc(SCc3cccnc3)s2)cc1"
  pIC50: 5.67
- Smiles Record: "CN(C)C/C=C/C(=O)Nc1ccc(C(=O)N2CCC[C@@H](Nc3ncc(Cl)c(-c4c[nH]c5ccccc45)n3)C2)cc1"
  pIC50: 6.77
- Smiles Record: "Cn1cc(-n2cnc3c(NCc4nc5cc(Cl)c(Cl)cc5[nH]4)nc(N4CCOCC4)nc32)cn1"
  pIC50: 7.15

Given the compound CC(C)(C)c1cnc(CSc2cnc(NC(=O)C3CCNCC3)s2)o1 , what is its reported pIC50? 7.10

----------
Consider the following compounds; for each one, report its IC50.
# Test system: OCI-AML5 cells expressing shRNAs targeting CDK1, 2, 4, 7, 9, cyclin K
# Experiment: Dose response in OCI-AML5 expressing shRNAs targeting CDK1, 2, 4, 7, 9, cyclin K or control
# Assay type: cell-based, H. sapiens
# Setup Conditions: Homo sapiens, OCI-AML-5, OCI-AML5 expressing shRNA CDK2; read-out: IC50 shRNA CDK2
One number for each entry, in µM.

Worked cases, IC50 given:
- Compound: "CN(C)c1ccc(CC(=O)Nc2ncc(SCc3cccnc3)s2)cc1 [S656]"
  Assayed Target: "OCI-AML5 cells expressing shRNAs targeting CDK1, 2, 4, 7, 9, cyclin K"
  IC50 (µM): 0.794
- Compound: "O=C(Cc1ccc(N2CCCCC2)cc1)Nc1ncc(SCc2cccnc2)s1 [UOM-005607]"
  Assayed Target: "OCI-AML5 cells expressing shRNAs targeting CDK1, 2, 4, 7, 9, cyclin K"
  IC50 (µM): 3.01
- Compound: "O=C(Cc1cc(F)ccc1Br)Nc1ncc(SCc2cccnc2)s1 [UOM-005204]"
  Assayed Target: "OCI-AML5 cells expressing shRNAs targeting CDK1, 2, 4, 7, 9, cyclin K"
  IC50 (µM): 8.34

Lab note: each compound below needs its IC50 filled in.
1. O=C(Cc1ccc(NC(=O)c2ccccc2)cc1)Nc1ncc(SCc2cccnc2)s1 [UOM-005478]
2. O=C(Cc1ccc(N2CCCC2)cc1)Nc1ncc(SCc2cccnc2)s1 [UOM-005608]
3. O=C(Nc1ncc(SCc2cccnc2)s1)C1CCNCC1 [UOM-005283]

1.08
0.18
4.64

For every listed record, write down its IC50.
1. Cl.Cl.O=C(CC1CCNC1)Nc1ncc(SCc2cccnc2)s1 (stereo not shown) [UOM-005300]
2. O=C(Cc1ccc(NC(=O)c2ccccn2)cc1)Nc1ncc(SCc2cccnc2)s1 [UOM-005474]
3. O=C(Cc1ccc(N2CCOCC2)cc1)Nc1ncc(SCc2cccnc2)s1 [UOM-005606]
4. O=C(Cc1ccc(-c2ccccc2)cc1)Nc1ncc(SCc2cccnc2)s1 [UOM-005429]
5. Cc1nc(CC(=O)Nc2ncc(SCc3cccnc3)s2)c(C)s1 [UOM-005227]
6. O=C(CC1CCCC1)Nc1ncc(SCc2cccnc2)s1 [UOM-005225]

1: 5.42; 2: 0.927; 3: 1.44; 4: 0.457; 5: 6.5; 6: 2.92

Dear reader, for each entry below, please note its IC50.
1. O=C(Cc1ccc(NC(=O)c2cccnc2)cc1)Nc1ncc(SCc2cccnc2)s1 [UOM-005475]
2. O=C(Cc1ccc(Br)cc1)Nc1ncc(SCc2cccnc2)s1 [UOM-005199]
3. O=C(Cc1ccc(C(F)(F)F)cc1)Nc1ncc(SCc2cccnc2)s1 [UOM-005203]

1: 0.73; 2: 2.94; 3: 4.39

meta.source: paper PMC12152147
